Provenance of the data: PubChem BioAssay (EPA / NIEHS)

- Read-out: Interleukin-8 (IL8), CXCL8 (gene 3576)
- Experiment Summary: BSK_CASM3C_IL8: BioMAP Diversity Plus: CASM3C Assay for Interleukin-8 (IL8) Biomarker Activity (AID 2283042);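 further: IL-8 protein level quantified by ELISA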
- Run Conditions: primary human coronary artery smooth muscle cells; actives raise or lower the signal
The source made the active and inactive calls. How the source made its calls: active means hit-call score of the fitted dose curve at least 0.9, where 1 is the maximum; inactive means score below 0.9.
Labels: True (active), False (inactive)

{"Compound": "CN(C)c1ccc(N=NS(=O)(=O)O)cc1", "Class": "False"}
{"Compound": "CCc1cc(SCc2sc(-c3ccc(C(F)(F)F)cc3)nc2CN2CCN(c3ccc(OC)cc3)CC2)ccc1OCC(=O)O", "Class": "True"}
{"Compound": "COc1ccc2sc(C(=O)Nc3nnn[nH]3)c(OC(C)C)c2c1", "Class": "True"}
{"Compound": "CCCCC(CC)COC(=O)CCCCCCCCC(=O)OCC(CC)CCCC (stereo not given)", "Class": "False"}
{"Compound": "Cn1cnc([N+](=O)[O-])c1Sc1ncnc2nc[nH]c12", "Class": "False"}
{"Compound": "Cc1ccc(S(=O)(=O)O)cc1C", "Class": "False"}
{"Compound": "CCC(C)(C)C(=O)O[C@H]1C[C@@H](C)C=C2C=C[C@H](C)[C@H](CC[C@@H]3C[C@@H](O)CC(=O)O3)[C@H]21", "Class": "True"}
{"Compound": "CC(C)CCCCCCCOC(=O)CCCCC(=O)OCCCCCCCC(C)C", "Class": "False"}
{"Compound": "O=C1CCCCCN1", "Class": "False"}
{"Compound": "CC[C@H]1CC[C@H](NCc2cc3c(cc2OC)[C@H]2C[C@H]2C(=O)N3C)[C@H](c2ccccc2)N1", "Class": "False"}
{"Compound": "CC[C@H]1OC(=O)[C@H](C)[C@@H](O[C@H]2C[C@@](C)(OC)[C@@H](O)[C@H](C)O2)[C@H](C)[C@@H](O[C@@H]2O[C@H](C)C[C@H](N(C)C)[C@H]2O)[C@](C)(O)C[C@@H](C)C(=O)[C@H](C)[C@@H](O)[C@]1(C)O", "Class": "False"}
{"Compound": "CC(C)c1cccc(C(C)C)c1N1C(=O)c2ccc(O)cc2C1=O", "Class": "False"}
{"Compound": "CC(O)CN(CCN(CC(C)O)CC(C)O)CC(C)O (stereo not given)", "Class": "False"}
{"Compound": "CC(C)CCCCCCOC(=O)c1ccc(C(=O)OCCCCCCC(C)C)c(C(=O)OCCCCCCC(C)C)c1", "Class": "False"}
{"Compound": "CCCCCCCCO", "Class": "False"}
{"Compound": "CCOC(=O)CC(CC(=O)OCC)(OC(C)=O)C(=O)OCC", "Class": "False"}
{"Compound": "CCCC(=O)OCC", "Class": "False"}
{"Compound": "O=C(O)c1cccc(N(Cc2cccnc2)c2ccc(OC(F)F)c(OC(F)F)c2)c1", "Class": "False"}
{"Compound": "CCOCCOCCOCCO", "Class": "False"}
{"Compound": "Fc1ccccc1[C@@H](F)COC1CCC(Nc2ncnc3[nH]ncc23)CC1 (stereo not given in full)", "Class": "False"}
{"Compound": "COC(=O)CC(=O)OC", "Class": "False"}
{"Compound": "CC(=O)OCCC(C)C", "Class": "False"}
{"Compound": "COc1ccc(/C=C/S(=O)(=O)NC(=O)c2ccc(C)cc2Cl)cc1", "Class": "False"}
{"Compound": "O=C(CCCCCCCCc1cccnc1)N1CCC(C=C(c2ccccc2)c2ccccc2)CC1", "Class": "True"}
{"Compound": "Cc1c(-c2cccnc2)c2ccccc2n1CCCCC(=O)O", "Class": "False"}
{"Compound": "CCOC(=O)COc1ccc2c(c1)CC(NCC(O)c1cccc(Cl)c1)CC2 (stereo not given)", "Class": "False"}
{"Compound": "O=C(NS(=O)(=O)/C=C/c1ccccc1)c1ccc(F)cc1Cl", "Class": "False"}
{"Compound": "C=CC(=C)CCC=C(C)C", "Class": "False"}
{"Compound": "CCCN(C1CCN(C(=O)C2CCNCC2)CC1)[C@@H]1CCc2ccc(OC)cc2C1", "Class": "False"}
{"Compound": "CC[C@H](C)C(=O)O[C@H]1C[C@@H](C)C=C2C=C[C@H](C)[C@H](CC[C@@H]3C[C@@H](O)CC(=O)O3)[C@H]21", "Class": "False"}
{"Compound": "COc1cccc(-c2ccc(/C=C\\CN3CCCCCC3)cc2Cl)c1", "Class": "False"}
{"Compound": "COC(=O)c1c(Cl)c(Cl)c(C(=O)OC)c(Cl)c1Cl", "Class": "False"}
{"Compound": "Cc1ccc(O)cc1", "Class": "False"}
{"Compound": "CC(C)=CCC/C(C)=C/CO", "Class": "False"}
{"Compound": "C=CCCCCCCCCC(=O)O", "Class": "False"}
{"Compound": "CC1(C)C(=O)N(Br)C(=O)N1Br", "Class": "False"}
{"Compound": "C[C@](N)(Cc1ccc(O)c(O)c1)C(=O)O", "Class": "False"}
{"Compound": "On1ccccc1=S", "Class": "False"}
{"Compound": "CC/C(=C\\C(=N/O)C(N)=O)C(C)[N+](=O)[O-] (stereo not given)", "Class": "False"}
{"Compound": "C1N2CN3CN1CN(C2)C3", "Class": "False"}

----------
- Read-out: Interleukin-8 (IL8), CXCL8 (gene 3576)
- Experiment Summary: BSK_LPS_IL8: BioMAP Diversity Plus: LPS Assay for Interleukin-8 (IL8) Biomarker Activity (AID 2283078)
- Run Conditions: primary human HUVEC with PBMC; actives raise or lower the signal
- Method: BSK_LPS is a cell-based, multiplexed-readout assay that uses umbilical vein endothelium and peripheral blood mononuclear cells, a human vascular primary cell co-culture, with measurements taken at 24 hours after chemical dosing in a 96-well plate.BSK_LPS_IL8 is an assay component measured in the BSK_LPS assay. It measures IL-8 antibody related to regulation of gene expression using ELISA technology.Data from the assay component BSK_LPS_IL8 was analyzed into 1 assay endpoint. […]
Activity calls are given as the source filed them. The calls were made as follows: active = hit-call score of the fitted dose curve at least 0.9, where 1 is the maximum; inactive = score below 0.9.
Labels: active, inactive

{"Compound": "CN(C)c1ccc(N=NS(=O)(=O)O)cc1", "Class": "inactive"}
{"Compound": "CCCCCCCCCCCCCCCO", "Class": "active"}
{"Compound": "CCOC(=O)CC(CC(=O)OCC)(OC(C)=O)C(=O)OCC", "Class": "inactive"}
{"Compound": "Cc1ccc(S(=O)(=O)O)cc1C", "Class": "inactive"}
{"Compound": "CCCCCCCCO", "Class": "inactive"}
{"Compound": "CC(C)CCO", "Class": "inactive"}
{"Compound": "O=C(OC[C@H]1O[C@@H](OC(=O)c2cc(O)c(O)c(OC(=O)c3cc(O)c(O)c(O)c3)c2)[C@H](OC(=O)c2cc(O)c(O)c(OC(=O)c3cc(O)c(O)c(O)c3)c2)[C@@H](OC(=O)c2cc(O)c(O)c(OC(=O)c3cc(O)c(O)c(O)c3)c2)[C@@H]1OC(=O)c1cc(O)c(O)c(OC(=O)c2cc(O)c(O)c(O)c2)c1)c1cc(O)c(O)c(OC(=O)c2cc(O)c(O)c(O)c2)c1", "Class": "inactive"}
{"Compound": "CCOCCO", "Class": "inactive"}
{"Compound": "CC1(C)C(=O)N(Br)C(=O)N1Br", "Class": "inactive"}
{"Compound": "CC(=O)OC[C@H]1O[C@@](COC(C)=O)(O[C@H]2O[C@H](COC(C)=O)[C@@H](OC(C)=O)[C@H](OC(C)=O)[C@H]2OC(C)=O)[C@@H](OC(C)=O)[C@@H]1OC(C)=O", "Class": "inactive"}
{"Compound": "CC[C@H]1OC(=O)[C@H](C)[C@@H](O[C@H]2C[C@@](C)(OC)[C@@H](O)[C@H](C)O2)[C@H](C)[C@@H](O[C@@H]2O[C@H](C)C[C@H](N(C)C)[C@H]2O)[C@](C)(O)C[C@@H](C)C(=O)[C@H](C)[C@@H](O)[C@]1(C)O", "Class": "inactive"}
{"Compound": "C=CCCCCCCCCC(=O)O", "Class": "inactive"}
{"Compound": "CC(C)=CCCC(C)CCO (stereo not given)", "Class": "inactive"}
{"Compound": "CCNc1ccccc1", "Class": "inactive"}
{"Compound": "CC[C@H](C)C(=O)O[C@H]1C[C@@H](C)C=C2C=C[C@H](C)[C@H](CC[C@@H]3C[C@@H](O)CC(=O)O3)[C@H]21", "Class": "inactive"}
{"Compound": "Nc1cccc(N)c1", "Class": "inactive"}
{"Compound": "CN(C)c1ccc(Cc2ccc(N(C)C)cc2)cc1", "Class": "active"}
{"Compound": "COC(=O)c1ccccc1O", "Class": "inactive"}
{"Compound": "O=C(O)CCN(C1(C(=O)NO)CCCC1)S(=O)(=O)c1ccc(Oc2ccc(F)cc2)cc1", "Class": "inactive"}
{"Compound": "CC/C(=C\\C(=N/O)C(N)=O)C(C)[N+](=O)[O-] (stereo not given)", "Class": "inactive"}
